Data origin: PubChem BioAssay (NCI)

- Tested on: OVCAR-3 ovarian
- Assay Notes: NCI tumour cell line growth inhibition, 48 h
Property Name: TGI

Here is how some compounds turned out for TGI.
> print(dat)
                                   compound      measured.on    result
1  O=S(=O)(O)c1ccc(N=Nc2ccc(N=Nc3c(O)ccc4ccccc34)c(S(=O)(=O)O)c2)cc1  OVCAR-3 ovarian  > 100 µM
2              Nc1ccc2nc3n(c(=O)c2c1)CCCCC3  OVCAR-3 ovarian  > 100 µM
3  Cc1ccc(Nc2nc(C)c(C(=O)CC(=O)C(=O)Nc3ccc(Cl)cc3)s2)cc1  OVCAR-3 ovarian  > 100 µM
4  Cn1c2c(c3ccccc31)C1C(=O)N(c3ccccc3)C(=O)C1CC2 (configuration not stated)  OVCAR-3 ovarian  > 303 µM

So, CC(=O)CC(O)(C(F)(F)Cl)C(F)(F)Cl ? Its TGI was > 10 µM

So, CCCCCCCCCCCC1=NCCN1 ? Its TGI was > 100 µM

So, CCCCCCCCCCCC(=O)c1c(O)cc(C)oc1=O ? Its TGI was > 100 µM

So, COC(=O)c1nn(-c2ccccc2)c(=O)cc1N=[N+]=[N-] ? Its TGI was > 100 µM

So, O=c1c2c3c(sc2nc(CN2CCNCC2)n1-c1ccccc1)CCCC3 ? Its TGI was > 100 µM
